biological target: plasma purified human complement protein C3 (human) (UniProt P01024); assay: cell-based or functional assay
Sequence (P01024 23-667, chain 1 of 2): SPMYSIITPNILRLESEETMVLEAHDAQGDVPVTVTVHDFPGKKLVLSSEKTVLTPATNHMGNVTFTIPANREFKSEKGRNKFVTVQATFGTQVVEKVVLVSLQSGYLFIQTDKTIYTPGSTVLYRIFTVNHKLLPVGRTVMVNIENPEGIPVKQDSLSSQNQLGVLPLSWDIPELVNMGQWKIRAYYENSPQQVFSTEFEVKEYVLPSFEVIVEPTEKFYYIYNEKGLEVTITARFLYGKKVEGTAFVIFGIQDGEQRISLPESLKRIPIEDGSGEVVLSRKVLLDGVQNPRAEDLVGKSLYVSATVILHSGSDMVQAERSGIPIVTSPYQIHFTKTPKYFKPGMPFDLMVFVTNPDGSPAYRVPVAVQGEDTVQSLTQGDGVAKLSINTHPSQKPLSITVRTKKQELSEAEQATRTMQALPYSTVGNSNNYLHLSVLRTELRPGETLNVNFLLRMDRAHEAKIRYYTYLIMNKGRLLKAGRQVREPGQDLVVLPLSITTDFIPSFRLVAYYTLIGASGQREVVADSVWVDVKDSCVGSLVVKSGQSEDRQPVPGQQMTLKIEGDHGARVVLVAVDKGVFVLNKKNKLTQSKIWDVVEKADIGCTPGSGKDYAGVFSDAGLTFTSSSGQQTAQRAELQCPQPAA
Sequence (P01024 672-1663, chain 2 of 2): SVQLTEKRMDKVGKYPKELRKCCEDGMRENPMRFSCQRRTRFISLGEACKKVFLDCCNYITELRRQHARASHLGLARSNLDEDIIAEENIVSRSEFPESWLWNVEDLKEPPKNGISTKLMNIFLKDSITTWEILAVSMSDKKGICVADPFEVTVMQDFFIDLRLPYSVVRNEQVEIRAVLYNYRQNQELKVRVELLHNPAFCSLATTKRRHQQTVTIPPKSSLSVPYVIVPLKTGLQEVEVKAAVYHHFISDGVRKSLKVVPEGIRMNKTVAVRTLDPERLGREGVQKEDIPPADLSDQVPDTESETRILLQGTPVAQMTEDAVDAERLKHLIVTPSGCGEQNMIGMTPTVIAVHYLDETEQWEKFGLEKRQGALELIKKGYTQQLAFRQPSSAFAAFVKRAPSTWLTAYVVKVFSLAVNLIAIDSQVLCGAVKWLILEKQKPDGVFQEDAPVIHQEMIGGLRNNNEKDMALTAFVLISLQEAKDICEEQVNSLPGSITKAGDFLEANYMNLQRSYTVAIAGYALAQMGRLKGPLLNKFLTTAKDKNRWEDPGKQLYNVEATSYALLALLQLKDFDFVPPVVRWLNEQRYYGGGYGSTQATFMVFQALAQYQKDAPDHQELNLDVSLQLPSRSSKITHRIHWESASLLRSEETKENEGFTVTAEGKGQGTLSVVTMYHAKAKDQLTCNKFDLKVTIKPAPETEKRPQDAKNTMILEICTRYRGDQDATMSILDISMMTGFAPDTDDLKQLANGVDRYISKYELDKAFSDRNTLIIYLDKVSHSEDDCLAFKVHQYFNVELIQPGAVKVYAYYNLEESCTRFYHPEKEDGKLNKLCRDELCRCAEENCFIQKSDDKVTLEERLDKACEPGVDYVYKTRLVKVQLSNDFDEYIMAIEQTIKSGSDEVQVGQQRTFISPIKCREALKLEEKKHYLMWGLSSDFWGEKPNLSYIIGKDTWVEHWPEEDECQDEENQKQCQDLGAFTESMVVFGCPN
assayMetric: EC50 hC3 cleavage
A bare number is not enough; add the unit after it.

Find the measured EC50 hC3 cleavage of MTSP-1 protease domain Q38K/I41G/D60bT/F60eG/Y60gW/D96L/F97N/T98G/F99L/C122S/G151N/Q175L/Q192D (enzyme) VVGGTDADEGEWPWQVSLHALGKGHGCGASLISPNWLVSAAHCYIDTRGGRWSDPTQWTAFLGLHDQSQRSAPGVQERRLKRIISHPFFNLNGLDYDIALLELEKPAEYSSMVRPISLPDASHVFPAGKAIWVTGWGHTQYGGTNALILQKGEIRVINQTTCENLLPQLITPRMMCVGFLSGGVDSCDGDSGGPLSSVEADGRIFQAGVVSWGDGCAQRNKPGVYTRLPLFRDWIKENTGV and report it.
12.5 nM

Find the measured EC50 hC3 cleavage of MTSP-1 protease domain I41E/F97V/F99L/C122S/G151N/Q192S/D217H (enzyme) VVGGTDADEGEWPWQVSLHALGQGHECGASLISPNWLVSAAHCYIDDRGFRYSDPTQWTAFLGLHDQSQRSAPGVQERRLKRIISHPFFNDVTLDYDIALLELEKPAEYSSMVRPISLPDASHVFPAGKAIWVTGWGHTQYGGTNALILQKGEIRVINQTTCENLLPQQITPRMMCVGFLSGGVDSCSGDSGGPLSSVEADGRIFQAGVVSWGHGCAQRNKPGVYTRLPLFRDWIKENTGV and report it.
42.2 nM

Next:
Find the measured EC50 hC3 cleavage of MTSP-1 protease domain Q38H/I41S/D60bT/F60eK/D96V/F97N/T98G/F99L/C122S/G151N/Q175L/Q192D (enzyme) VVGGTDADEGEWPWQVSLHALGHGHSCGASLISPNWLVSAAHCYIDTRGKRYSDPTQWTAFLGLHDQSQRSAPGVQERRLKRIISHPFFNVNGLDYDIALLELEKPAEYSSMVRPISLPDASHVFPAGKAIWVTGWGHTQYGGTNALILQKGEIRVINQTTCENLLPQLITPRMMCVGFLSGGVDSCDGDSGGPLSSVEADGRIFQAGVVSWGDGCAQRNKPGVYTRLPLFRDWIKENTGV and report it.
13.3 nM
